Tested on: U251 CNS
Assay: NCI tumour cell line growth inhibition, 48 h
Each entry below carries its recorded TGI.

COMPOUND: O=C(Nc1nnc(-c2ccccc2)o1)C(SC(=S)N1CCCC1)c1ccccc1 (stereo unspecified)
TGI: > 100 µM
//
COMPOUND: O=c1c2ccccc2n2nnc3ccc(NCCNCCO)c1c32
TGI: 6.73 µM

Now look at this entry.
Identify TGI associated with the compound CCOC(=O)/C(=C/c1cn(C(C)=O)c2ccccc12)P(=O)(OC)OC
> 100 µM

====

Each entry below carries its recorded TGI.
Test system: SF-539 CNS
Assay: NCI tumour cell line growth inhibition, 48 h
The answer is to be given in µM; state only the numeric part.

COMPOUND: CCOC(=O)CCC(NC(=O)c1ccc(NCc2ccc3nc(OC)c(OC)nc3c2)c2ccccc12)C(=O)OCC (stereo not drawn)
TARGET_ENTITY: SF-539 CNS
TGI, µM: 56.5

Now look at this entry.
Identify TGI associated with the compound CC(CSc1nc2c(c(=N)n1-c1ccccc1)c(=S)n(-c1ccccc1)c(=S)n2-c1ccccc1)CN(C)C (stereo not drawn)
7.9
